PROTOCOL: Cytotoxicity MTT assay
Format: cell-based
CONDITION DESCRIPTION: human, HelaM cells, concentration that causes 50% reduction in cell viability
Can you tell me CC50 at 72 h for the items I'm about to list?

N#Cc1cccc(-c2cnc(-c3cccnc3)nc2C2CCCN(CC(F)(F)F)C2)c1 (stereo not drawn): > 10.6 µg/mL
COc1cccc(-c2cnc(-c3ccncc3)nc2C2CCN(Cc3ccc(Cl)cc3O)CC2)c1: 5.9 µg/mL

Provide reported CC50 at 72 h for each item, in the same order as listed.
1. CN(C)c1ncc(-c2ccccc2F)c(C2CCN(CC(C)(C)C)CC2)n1
2. CC(C)(C)CN1CCC(c2nc(C3CC3)ncc2-c2cccc(C#N)c2)CC1
3. CC(C)(C)CN1CCCC(c2nc(-c3cccnc3)ncc2-c2cccc(C#N)c2)C1 (stereo not drawn)
4. COc1cccc(-c2cnc(-c3ccncc3)nc2N2CCC(NC(=O)C(C)Oc3ccccc3)CC2)c1 (stereo not drawn)
5. COc1cccc(-c2cnc(-c3ccncc3)nc2C2CCN(C3CC3)CC2)c1
6. COc1cccc(-c2cnc(-c3ccncc3)nc2C2CCN(C(=O)C(C)Oc3ccccc3)CC2)c1 (stereo not drawn)

["7.8 µg/mL", "> 9.4 µg/mL", "> 10.3 µg/mL", "8.5 µg/mL", "> 9.7 µg/mL", "8.1 µg/mL"]

###

Can you tell me melting point for the items I'm about to list?

As a guide, the following entries are already answered.
COc1ccc(-c2cnc(-c3ccncc3)nc2C2CCN(CC(C)(C)C)CC2)cc1 [Compound 36]: 154 to 156 °C
COc1cccc(-c2cnc(-c3ccncc3)nc2N2CCN(CC(C)(C)C)CC2)c1 [Compound 21]: 117 to 120 °C
CC(C)(C)CN1CCC(c2nc(-c3cncnc3)ncc2-c2cccc(C#N)c2)CC1 [Compound 68]: 163 to 170 °C
N#Cc1ccc(-c2ncc(-c3cccc(C#N)c3)c(C3CCN(CC(F)(F)F)CC3)n2)cc1 [Compound 84]: 249 to 251 °C
Cc1cccc(-c2cnc(-c3ccncc3)nc2C2CCN(Cc3cccc(F)c3)CC2)c1 [Compound 14]: 195 to 196 °C
COc1cccc(-c2cnc(-c3cccnc3)nc2C2CCN(C(=O)C(C)Oc3ccccc3)CC2)c1 (centres unmarked) [Compound 27]: 138 to 140 °C
Cc1ccc(-c2cnc(-c3ccncc3)nc2C2CCN(CC(C)(C)C)CC2)cc1 [Compound 38]: 170 to 171 °C

Look up and state reported melting point for COc1cccc(-c2cnc(-c3ccncc3)nc2C2CCN(Cc3ccc(F)c(F)c3)CC2)c1 [Compound 43]
158 °C

###

Can you tell me melting point for the items I'm about to list?
One number for each entry, in °C.

COc1cccc(-c2cnc(-c3ccncc3)nc2C2CCN(CC(C)(C)C)CC2)c1: 118

Provide reported melting point for each item, in the same order as listed.
1. COc1cccc(-c2cnc(-c3ccncc3)nc2C2CCN(Cc3ccccc3F)CC2)c1
2. COc1cccc(-c2cnc(-c3ccncc3)nc2C2CCN(Cc3ccc(F)cc3F)CC2)c1

139
138

###

PROTOCOL: Cytotoxicity MTT assay
Assay type: cell-based
CONDITION DESCRIPTION: human, HelaM cells, concentration that causes 50% reduction in cell viability
Entries whose CC50 at 72 h is below 7 µg/mL take T; entries at or above 7 µg/mL take F.

Illustrative cases are given below, each with its answer.
COc1cccc(-c2cnc(-c3ccncc3)nc2N2CCN(CC(C)(C)C)CC2)c1: T
COc1cccc(-c2cnc(-c3ccncc3)nc2C2CCN(CC3CCCCC3)CC2)c1: F
COc1cccc(-c2cnc(-c3ccncc3)nc2C2CCN(CC(C)(C)C#N)CC2)c1: F
COc1ccc(-c2ncc(-c3cccc(C#N)c3)c(C3CCN(CC(C)(C)C)CC3)n2)cn1: F
COc1cccc(-c2cnc(-c3ccncc3)nc2C2CCN(Cc3cccs3)CC2)c1: F
Cc1cccc(-c2cnc(-c3ccncc3)nc2C2CCN(Cc3cc(Cl)ccc3O)CC2)c1: T
COc1cccc(-c2cnc(-c3ccncc3)nc2C2CCN(Cc3ccccc3C#N)CC2)c1: T
C#CCN1CCC(c2nc(-c3ccncc3)ncc2-c2cccc(OC)c2)CC1: F

Report whether reported CC50 at 72 h is lower than 7 µg/mL (strictly) for COc1cccc(-c2cnc(-c3ccncc3)nc2C2CCN(CC(F)(F)F)CC2)c1
T

Report whether reported CC50 at 72 h is lower than 7 µg/mL (strictly) for COc1cccc(-c2cnc(-c3ccncc3)nc2C2CCN(Cc3ccc(C)cc3)CC2)c1
F

Report whether reported CC50 at 72 h is lower than 7 µg/mL (strictly) for N#Cc1cccc(-c2cnc(-c3ccncc3)nc2C2CCCN(CC(F)(F)F)C2)c1 (stereo not drawn)
F

Report whether reported CC50 at 72 h is lower than 7 µg/mL (strictly) for CC(C)(C)CN1CCC(c2nc(-c3ccncc3)ncc2-c2cccc(C#N)c2)CC1
F

Report whether reported CC50 at 72 h is lower than 7 µg/mL (strictly) for Cc1cccc(-c2cnc(-c3ccncc3)nc2C2CCN(CC(C)(C)C)CC2)c1
F

Report whether reported CC50 at 72 h is lower than 7 µg/mL (strictly) for CN(C)c1cccc(-c2cnc(-c3ccncc3)nc2C2CCN(CC(C)(C)C)CC2)c1
F

###

Can you tell me melting point for the items I'm about to list?
Give bare numbers, in °C.

As a guide, the following entries are already answered.
COc1cccc(-c2cnc(-c3ccncc3)nc2C2CCN(C(=O)C(C)(C)C)CC2)c1: 165
COc1cccc(-c2cnc(-c3ccc(F)cc3)nc2C2CCN(CC(C)(C)C#N)CC2)c1: 119
COc1cccc(-c2cnc(-c3ccncc3)nc2C2CCN(Cc3cccc(Cl)c3)CC2)c1: 133

Provide reported melting point for each item, in the same order as listed.
1. COc1cccc(-c2cnc(-c3ccncc3)nc2C2CCN(Cc3c(F)cccc3F)CC2)c1
2. COc1cccc(-c2cnc(-c3ccncc3)nc2C2CCN(Cc3ccc(C#N)cc3)CC2)c1
3. COc1cccc(-c2cnc(-c3ccncc3)nc2C2CCN(Cc3cc(F)cc(F)c3)CC2)c1
4. Cc1ccccc1-c1cnc(-c2ccncc2)nc1C1CCN(CC(C)(C)C)CC1

1: 184; 2: 168; 3: 181; 4: 208

###

PROTOCOL: Cytotoxicity MTT assay
Format: cell-based
CONDITION DESCRIPTION: human, HelaM cells, concentration that causes 50% reduction in cell viability
Can you tell me CC50 at 72 h for the items I'm about to list?

COc1ccc(-c2cnc(N(C)C)nc2C2CCN(CC(C)(C)C)CC2)cc1 [Compound 53]: 7.5 µg/mL
CC(C)(C)CN1CCC(c2nc(-c3ccc(C#N)cc3)ncc2-c2cccc(C#N)c2)CC1 [Compound 65]: > 4.4 µg/mL
COc1cccc(-c2cnc(-c3ccccn3)nc2C2CCN(Cc3cc(Cl)ccc3O)CC2)c1 [Compound 23]: 4.4 µg/mL
COc1cccc(-c2cnc(-c3ccncc3)nc2C2CCN(Cc3ccc(F)cc3)CC2)c1 [Compound 29]: 8.5 µg/mL
COc1cccc(-c2cnc(-c3ccncc3)nc2C2CCN(Cc3cc(F)cc(F)c3)CC2)c1 [Compound 48]: 2.2 µg/mL

Provide reported CC50 at 72 h for each item, in the same order as listed.
1. COc1cccc(-c2cnc(-c3ccncc3)nc2C2CCN(Cc3ccccc3F)CC2)c1 [Compound 41]
2. CC(C)(C)CN1CCCC(c2nc(-c3ccncc3)ncc2-c2cccc(C#N)c2)C1 (centres unmarked) [Compound 61]
3. COc1cccc(-c2cnc(-c3ccncc3)nc2C2CCN(Cc3cccc(C#N)c3)CC2)c1 [Compound 31]

1: 7.7 µg/mL; 2: > 10.3 µg/mL; 3: 4.2 µg/mL

###

PROTOCOL: Cytotoxicity MTT assay
Assay type: cell-based
CONDITION DESCRIPTION: human, HelaM cells, concentration that causes 50% reduction in cell viability
METRIC: CC50 at 72 h

As a guide, the following entries are already answered.
COc1ccc(-c2cnc(-c3ccncc3)nc2C2CCN(CC(C)(C)C)CC2)cc1 [Compound 36]: > 10.5 µg/mL
Cc1cccc(-c2cnc(-c3ccncc3)nc2C2CCN(Cc3ccccc3O)CC2)c1 [Compound 8]: > 4.4 µg/mL
CC(C)(C)CN1CCC(c2nc(-c3ccncc3)ncc2-c2cccc(Cl)c2)CC1 [Compound 39]: 7.3 µg/mL

Look up and state reported CC50 at 72 h for CC(C)(C)CN1CCC(c2nc(-c3cccnc3)ncc2-c2cccc(C#N)c2)CC1 [Compound 69]
> 10.3 µg/mL

###

PROTOCOL: Cytotoxicity MTT assay
Assay type: cell-based
CONDITION DESCRIPTION: human, HelaM cells, concentration that causes 50% reduction in cell viability
METRIC: CC50 at 72 h

As a guide, the following entries are already answered.
N#Cc1cccc(-c2cnc(-c3ccncc3)nc2C2CCN(CC(F)(F)F)CC2)c1: > 10.6 µg/mL
COc1cccc(-c2cnc(-c3ccncc3)nc2N2CCC(c3ccccc3)CC2)c1: 5.7 µg/mL
Cc1ccccc1-c1cnc(-c2ccncc2)nc1C1CCN(CC(C)(C)C)CC1: > 4 µg/mL

# context switch: different compound, same CC50 at 72 h
Look up and state reported CC50 at 72 h for COc1cccc(-c2cnc(-c3ccncc3)nc2C2CCN(C(=O)C(C)(C)C)CC2)c1
> 10.8 µg/mL
